# Target or system: PAK6 (human)
# Assay details: radiometric filter-binding kinase assay
# Test parameters: compound 10.0 µM
Outcome measure: residual activity (%)

Reference set, count: 8
{"Compound": "CC1=C(CO)C(=O)O[C@@H]([C@@H](C)[C@H]2CC[C@H]3[C@@H]4C[C@H]5O[C@]56[C@@H](O)C=CC(=O)[C@]6(C)C4CC[C@]23C)C1 (stereo partly specified)", "Unit descriptor": "%", "residual activity": 105}
{"Compound": "Cc1cc(SCc2sc(-c3ccc(C(F)(F)F)cc3)nc2C)ccc1OCC(=O)O", "Unit descriptor": "%", "residual activity": 109}
{"Compound": "Oc1ccc2ccccc2c1SSc1c(O)ccc2ccccc12", "Unit descriptor": "%", "residual activity": 101}
{"Compound": "CCCCCc1ccc(/C=C/[C@H](O)[C@@H](CO)NC)cc1", "Unit descriptor": "%", "residual activity": 103}
{"Compound": "Cc1cccc(Nc2nn(C)c3ncnc(N)c23)c1", "Unit descriptor": "%", "residual activity": 102}
{"Compound": "O=C(NOCC(O)CO)c1ccc(F)c(F)c1Nc1ccc(I)cc1Cl (stereo unspecified)", "Unit descriptor": "%", "residual activity": 103}
{"Compound": "C=CC(=O)N1CCC[C@@H](n2nc(-c3ccc(Oc4ccccc4)cc3)c3c(N)ncnc32)C1", "Unit descriptor": "%", "residual activity": 82}
{"Compound": "O=C1Nc2nc(-c3c(O)cccc3OCC3CC3)cc(C3CCCNC3)c2CO1 (stereo unspecified)", "Unit descriptor": "%", "residual activity": 78}

A: NC(=O)c1cc2c(-c3cccc(-c4ccccc4)c3)cnc(N)c2s1
B: CCn1c(-c2nonc2N)nc2cncc(CNC3CCNCC3)c21
INPUT: From the items above, decide which of A and B has the lower residual activity reading. Record your answer as the label of the chosen record.
OUTPUT: A

P: COc1cc(C(=O)N2CCOCC2)c(F)cc1Nc1ncc(C(F)(F)F)c(NC2CC2)n1
Q: NCC(=O)Nc1ccc(-n2nc(C(F)(F)F)cc2-c2ccc3c(ccc4ccccc43)c2)cc1
INPUT: Higher residual activity: P or Q ? Record your answer as the label of the chosen record.
OUTPUT: P
(P: 94%, Q: 28%)

1: NC(=O)c1ccc(-c2ccc(Oc3cncc4sc(-c5nn[nH]n5)cc34)cc2)cc1
2: CCOC(=O)c1ccc(N2NC(=O)/C(=C/c3ccc([N+](=O)[O-])o3)C2=O)cc1
INPUT: Higher residual activity: 1 or 2 ? Record your answer as the label of the chosen record.
OUTPUT: 2
(2: 133%, 1: 87%)
